Numbers sourced from patent US4230702A.

# protocol-details: Oral toxicity (LD50) of solutions in partial glycerides versus suspension in aqueous tylose
# conditions-used: guinea pig, in vivo, female guinea pigs, solution in Rilanit GMO (mono- and diglycerides of oleic acid), read-out: LD50 in Rilanit GMO
recorded-metric: LD50 (mg/kg)

CC(=O)[C@@]1(C)CC[C@H]2[C@@H]3C=C(C)C4=CC(=O)CC[C@]4(C)[C@H]3CC[C@@]21C ... 862

* * *

compounds and their reported LD50
# protocol-details: Oral toxicity (LD50) of solutions in partial glycerides versus suspension in aqueous tylose
# conditions-used: guinea pig, in vivo, female guinea pigs, suspended in tylose (methylcellulose) solution in water, read-out: LD50 in Tylose
recorded-metric: LD50 (mg/kg)

CC1OC(OC2CC(O)C3(CO)C4C(O)CC5(C)C(C6=CC(=O)OC6)CCC5(O)C4CCC3(O)C2)C(O)C(O)C1O (stereo not drawn) ... 34.8
C[C@@H]1O[C@@H](O[C@@H]2C=C3CC[C@@H]4[C@H](CC[C@]5(C)[C@@H](c6ccc(=O)oc6)CC[C@]45O)[C@@]3(C)CC2)[C@H](O)[C@H](O)[C@H]1O ... 12.3
CC(=O)[C@@]1(C)CC[C@H]2[C@@H]3C=C(C)C4=CC(=O)CC[C@]4(C)[C@H]3CC[C@@]21C ... 1470
